Conditions: in ethanol, 288.15 K
Reported Endpoint: solubility (mole fraction)
// print number alone

[Q] Please report the recorded solubility (mole fraction) for CC(=O)c1c(C)cc(C(C)(C)C)cc1C .
[A] 0.196

----------
Conditions: in ethanol, 308.15 K
Reported Endpoint: solubility (mole fraction)
// print number alone

[Q] Please report the recorded solubility (mole fraction) for CC(=O)c1c(C)cc(C(C)(C)C)cc1C .
[A] 0.705

----------
Details: in ethyl acetate, 298.15 K
Reported Endpoint: solubility (mole fraction)
// print number alone

[Q] Please report the recorded solubility (mole fraction) for CC(=O)c1c(C)cc(C(C)(C)C)cc1C .
[A] 0.673

----------
Conditions: in cyclohexane, 303.15 K
Reported Endpoint: solubility (mole fraction)

[Q] Please report the recorded solubility (mole fraction) for CC(=O)c1c(C)cc(C(C)(C)C)cc1C .
[A] 0.735

----------
Settings: in isopropanol, 288.15 K
Reported Endpoint: solubility (mole fraction)
// print number alone

[Q] Please report the recorded solubility (mole fraction) for CC(=O)c1c(C)cc(C(C)(C)C)cc1C .
[A] 0.206

----------
Details: in acetone, 283.15 K
Reported Endpoint: solubility (mole fraction)
// print number alone

[Q] Please report the recorded solubility (mole fraction) for CC(=O)c1c(C)cc(C(C)(C)C)cc1C .
[A] 0.393

----------
Settings: in cyclohexane, 293.15 K
Reported Endpoint: solubility (mole fraction)
// print number alone

[Q] Please report the recorded solubility (mole fraction) for CC(=O)c1c(C)cc(C(C)(C)C)cc1C .
[A] 0.56

----------
Details: in acetonitrile, 278.15 K
Reported Endpoint: solubility (mole fraction)
// print number alone

[Q] Please report the recorded solubility (mole fraction) for CC(=O)c1c(C)cc(C(C)(C)C)cc1C .
[A] 0.235

----------
Details: in n-octanol, 288.15 K
Reported Endpoint: solubility (mole fraction)
// print number alone

[Q] Please report the recorded solubility (mole fraction) for CC(=O)c1c(C)cc(C(C)(C)C)cc1C .
[A] 0.27

----------
Settings: in methanol, 298.15 K
Reported Endpoint: solubility (mole fraction)
// print number alone

[Q] Please report the recorded solubility (mole fraction) for CC(=O)c1c(C)cc(C(C)(C)C)cc1C .
[A] 0.339

----------
Conditions: in n-octanol, 283.15 K
Reported Endpoint: solubility (mole fraction)
// print number alone

[Q] Please report the recorded solubility (mole fraction) for CC(=O)c1c(C)cc(C(C)(C)C)cc1C .
[A] 0.205

----------
Conditions: in isopropanol, 273.15 K
Reported Endpoint: solubility (mole fraction)
// print number alone

[Q] Please report the recorded solubility (mole fraction) for CC(=O)c1c(C)cc(C(C)(C)C)cc1C .
[A] 0.073

----------
Details: in n-octanol, 298.15 K
Reported Endpoint: solubility (mole fraction)
// print number alone

[Q] Please report the recorded solubility (mole fraction) for CC(=O)c1c(C)cc(C(C)(C)C)cc1C .
[A] 0.46

----------
Details: in isopropanol, 298.15 K
Reported Endpoint: solubility (mole fraction)
// print number alone

[Q] Please report the recorded solubility (mole fraction) for CC(=O)c1c(C)cc(C(C)(C)C)cc1C .
[A] 0.391

----------
Settings: in acetone, 273.15 K
Reported Endpoint: solubility (mole fraction)
// print number alone

[Q] Please report the recorded solubility (mole fraction) for CC(=O)c1c(C)cc(C(C)(C)C)cc1C .
[A] 0.308

The origin of these recorded values is BigSolDB 2.1.
